# Tested on: A673/TR/shEF
# test: cell viability (LOESS-normalised, relative to median of negative controls) (log2 ratio); higher = more viable cells (less compound effect), active = hit call of the paper (over 3 MAD below the median)
# settings: 0.25 µM; library screen: screen1; EWS-FLI1 expression: low (doxycycline-induced shRNA knockdown); treatment time: 72 h
Out of some 3,200 compounds screened, about 300 (9.4%) showed activity. The full list was thinned out, with actives kept by preference.
Give one outcome, nothing more. List: active, inactive

Solved cases (5 shown):
molecule	class
CC(C)(C)c1cc(C=C(C#N)C#N)cc(C(C)(C)C)c1O	inactive
COc1cc2c(cc1OC)[C@H]1C(=O)c3ccc4c(c3O[C@H]1CO2)C[C@@H](C(C)C)O4	active
CCCCOC(=O)c1ccccc1C(=O)OCCCC	inactive
CC(=O)Oc1c2c(c(CC=C(C)C)c3c1C(=O)C1=C[C@@H]4CC5C(C)(C)OC(C/C=C(\C)C(=O)O)(C4=O)[C@@]15O3)OC(C)(CCC=C(C)C)C=C2 (stereo not given in full)	inactive
C=C(C)[C@H]1Cc2c(ccc3c(=O)c4c(oc23)COc2cc(OC)c(OC)cc2-4)O1	inactive

Would you mind telling me which call this test gave `CC[C@H]1CN2CC[C@H]1C[C@@H]2[C@@H](O)c1ccnc2ccc(OC)cc12` ?
inactive

Would you mind telling me which call this test gave `C[C@]12CCC(=O)C=C1CCc1ccc(O)cc12` ?
inactive

Would you mind telling me which call this test gave `CC(=O)[O][Hg][c]1ccccc1` ?
inactive

Would you mind telling me which call this test gave `C[CH2][Hg][S]c1ccccc1C(=O)O` ?
inactive

Would you mind telling me which call this test gave COc1cc2c(cc1OC)C1C(=O)c3ccc(O)c(CC=C(C)C)c3OC1CO2 (stereo not given) ?
inactive

---

# Tested on: A673/TR/shEF
# test: cell viability (LOESS-normalised, relative to median of negative controls) (log2 ratio); higher = more viable cells (less compound effect), active = hit call of the paper (over 3 MAD below the median)
# settings: 2.5 µM; library screen: screen2; EWS-FLI1 expression: low (doxycycline-induced shRNA knockdown); treatment time: 72 h
The campaign covered roughly 3,200 compounds. About 300 (9.4%) showed activity. The sample as a whole holds a higher share of actives than the screen did.
readout label: cell viability (log2)
Please respond with just the number, no unit label.

// below: answered molecules
molecule	cell viability (log2)
CC(C)(C)c1o[nH]c(=O)c1CC(N)C(=O)O (configuration not stated)	0.0294
CC1=C(O)C(=O)C=C2C1=CC=C1[C@@]2(C)CC[C@@]2(C)[C@@H]3C[C@](C)(C(=O)O)CC[C@]3(C)CC[C@]12C	-0.301
C[C@H]1O[C@@H](C[N+](C)(C)C)CS1	0.035
COc1ccc(CCN)cc1O	0.0823
C/C(O)=C(\C#N)C(=O)Nc1cc(Br)ccc1Br	0.0594
O=C(O)CCCc1ccc(N(CCCl)CCCl)cc1	0.11
NC(=O)CN1CC(O)CC1=O (configuration not stated)	0.0838
COc1ccc2c(c1OC)C(=O)O[C@H]2[C@@H]1c2cc3c(cc2CCN1C)OCO3	0.113

Value wanted: cell viability (log2) (A673/TR/shEF) of entry `N[C@@H](Cc1ccc(N(CCCl)CCCl)cc1)C(=O)O`
0.172

Value wanted: cell viability (log2) (A673/TR/shEF) of entry `COc1cc(C[C@@H](C)N)c(OC)cc1I`
0.145

Value wanted: cell viability (log2) (A673/TR/shEF) of entry `COc1ccc2c(c1O)-c1c3c(cc4c1[C@H](C2)N(C)CC4)OCO3`
0.132

Value wanted: cell viability (log2) (A673/TR/shEF) of entry `N[C@@H](Cn1ccc(=O)[nH]c1=O)C(=O)O`
0.041
